Data provenance: paper PMC11483378

Target entity: E. coli OGDH E1 (Escherichia coli)
Sequence (P0AFG3 whole entry): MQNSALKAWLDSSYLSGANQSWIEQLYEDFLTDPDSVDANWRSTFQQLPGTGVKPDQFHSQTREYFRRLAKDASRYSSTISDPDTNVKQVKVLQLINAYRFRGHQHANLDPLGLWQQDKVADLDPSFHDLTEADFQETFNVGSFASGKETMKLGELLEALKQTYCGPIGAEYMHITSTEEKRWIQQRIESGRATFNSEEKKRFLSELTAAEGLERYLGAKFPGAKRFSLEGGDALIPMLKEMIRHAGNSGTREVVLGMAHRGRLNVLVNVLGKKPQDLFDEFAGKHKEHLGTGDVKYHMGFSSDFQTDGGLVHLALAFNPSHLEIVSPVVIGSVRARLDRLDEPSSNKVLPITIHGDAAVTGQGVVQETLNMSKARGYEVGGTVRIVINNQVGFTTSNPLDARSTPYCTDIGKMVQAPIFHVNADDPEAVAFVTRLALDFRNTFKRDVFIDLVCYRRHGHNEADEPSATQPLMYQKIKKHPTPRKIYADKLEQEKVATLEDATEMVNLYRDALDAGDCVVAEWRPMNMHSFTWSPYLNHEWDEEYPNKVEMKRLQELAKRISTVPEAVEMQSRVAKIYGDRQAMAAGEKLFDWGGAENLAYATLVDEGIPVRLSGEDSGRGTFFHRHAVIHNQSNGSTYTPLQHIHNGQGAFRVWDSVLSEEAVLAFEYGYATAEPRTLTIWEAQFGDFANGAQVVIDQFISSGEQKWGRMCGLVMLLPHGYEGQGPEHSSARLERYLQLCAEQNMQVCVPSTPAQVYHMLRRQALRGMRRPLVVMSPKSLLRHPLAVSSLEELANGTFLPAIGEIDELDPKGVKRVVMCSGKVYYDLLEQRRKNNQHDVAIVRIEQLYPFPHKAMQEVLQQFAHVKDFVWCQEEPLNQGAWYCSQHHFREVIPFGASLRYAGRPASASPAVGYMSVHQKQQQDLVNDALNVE
Measurement notes: E. coli OGDH E1 inhibitory activity assay (DCPIP reduction)
Format: biochemical
Condition context: [Compound] = 250 μM, [TPP] = 50 μM
Measured endpoint: % Inhibition (5:1) (%)

compound="Cc1ncc(Cn2cc(CCCC(C(=O)[O-])C(=O)[O-])nn2)c(N)n1.[K+].[K+] [14b]" measured_endpoint="% Inhibition (5:1)" endpoint_value=83
compound="COC(=O)C(CCc1cn(Cc2cnc(C)nc2N)nn1)C(=O)OC [13a]" measured_endpoint="% Inhibition (5:1)" endpoint_value=40
compound="Cc1ncc(Cn2cc(CCC(C(=O)[O-])C(=O)[O-])nn2)c(N)n1.[K+].[K+] [14a]" measured_endpoint="% Inhibition (5:1)" endpoint_value=76
compound="COC(=O)CCCCc1cn(Cc2cnc(C)nc2N)nn1 [15b]" measured_endpoint="% Inhibition (5:1)" endpoint_value=42
compound="COC(=O)C(CCCc1cn(Cc2cnc(C)nc2N)nn1)C(=O)OC [13b]" measured_endpoint="% Inhibition (5:1)" endpoint_value=54
compound="Cc1ncc(Cn2cc(CCCC(=O)[O-])nn2)c(N)n1.[K+] [16a]" measured_endpoint="% Inhibition (5:1)" endpoint_value=49
compound="COC(=O)CCCc1cn(Cc2cnc(C)nc2N)nn1 [15a]" measured_endpoint="% Inhibition (5:1)" endpoint_value=38
compound="Cc1ncc(Cn2cc(CCCCC(=O)[O-])nn2)c(N)n1.[K+] [16b]" measured_endpoint="% Inhibition (5:1)" endpoint_value=54
